# measured_on: cKIT (Homo sapiens, UniProt P10721)
# Construct: The kinase domain of cKIT was assayed in 50 mM Hepes; purchased Upstate 14-559
# Sequence (P10721 589-937 limits assumed): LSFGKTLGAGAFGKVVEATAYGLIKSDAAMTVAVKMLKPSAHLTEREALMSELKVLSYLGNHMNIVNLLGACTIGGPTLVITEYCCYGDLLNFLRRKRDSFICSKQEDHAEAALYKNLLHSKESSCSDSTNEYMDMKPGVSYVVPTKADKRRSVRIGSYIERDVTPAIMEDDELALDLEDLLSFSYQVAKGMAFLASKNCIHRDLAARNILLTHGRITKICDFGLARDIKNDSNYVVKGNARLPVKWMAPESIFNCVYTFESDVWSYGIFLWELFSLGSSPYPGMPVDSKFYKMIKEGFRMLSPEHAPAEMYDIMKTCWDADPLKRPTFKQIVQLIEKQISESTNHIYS
# method: cKIT kinase in vitro biochemical assay (alphascreen)
# measurement_context: tested at about 1 μM; read-out: CKIT percent inhibition
assay_readout: inhibition at 1 µM (%)

Ask: Would you please give the reported inhibition at 1 µM of `O[C@@H]1CCCC[C@H]1Nc1nc2ccc(Oc3cnc(Cl)c(Br)c3)cc2s1` with cKIT (Homo sapiens, UniProt P10721)?
Result: 27

Ask: Would you please give the reported inhibition at 1 µM of `O=C(c1cncc(-c2cncc(Oc3ccc4nc(N[C@@H]5CCCC[C@H]5O)sc4c3)c2)c1)N1CCOCC1` with cKIT (Homo sapiens, UniProt P10721)?
Result: 28

Ask: Would you please give the reported inhibition at 1 µM of `O[C@@H]1CCCC[C@H]1Nc1nc2ccc(Oc3cncc(-c4cnn(CCN5CCOCC5)c4)n3)cc2s1` with cKIT (Homo sapiens, UniProt P10721)?
Result: 18

Ask: Would you please give the reported inhibition at 1 µM of `Nc1ccc(-c2nccc(Oc3ccc4nc(N[C@@H]5CCCC[C@H]5O)sc4c3)n2)cn1` with cKIT (Homo sapiens, UniProt P10721)?
Result: 13

Ask: Would you please give the reported inhibition at 1 µM of `O[C@@H]1CCCC[C@H]1Nc1nc2ccc(Oc3cncc(C4=CCNCC4)c3)cc2s1` with cKIT (Homo sapiens, UniProt P10721)?
Result: 13

Ask: Would you please give the reported inhibition at 1 µM of `Clc1ccncc1Oc1ccc2nc(NCC3CCCCC3)sc2c1` with cKIT (Homo sapiens, UniProt P10721)?
Result: 66

P. O[C@@H]1CCCC[C@H]1Nc1nc2ccc(Oc3cncc(-c4cn[nH]c4)n3)cc2s1
Q. Cn1ccnc1-c1cncc(Oc2ccc3nc(N[C@@H]4CCCC[C@H]4O)sc3c2)c1
Ask: Of the two listed items, which has the higher inhibition at 1 µM? First: P Second: Q Answer by stating the label of the chosen item.
Result: Q
(Q: 40%, P: 27%)

Entry source: patent US8293769B2
